TARGET OR TEST SYSTEM: TLR8 (Homo sapiens, UniProt Q9NR97)
Sequence (Q9NR97 27-1041): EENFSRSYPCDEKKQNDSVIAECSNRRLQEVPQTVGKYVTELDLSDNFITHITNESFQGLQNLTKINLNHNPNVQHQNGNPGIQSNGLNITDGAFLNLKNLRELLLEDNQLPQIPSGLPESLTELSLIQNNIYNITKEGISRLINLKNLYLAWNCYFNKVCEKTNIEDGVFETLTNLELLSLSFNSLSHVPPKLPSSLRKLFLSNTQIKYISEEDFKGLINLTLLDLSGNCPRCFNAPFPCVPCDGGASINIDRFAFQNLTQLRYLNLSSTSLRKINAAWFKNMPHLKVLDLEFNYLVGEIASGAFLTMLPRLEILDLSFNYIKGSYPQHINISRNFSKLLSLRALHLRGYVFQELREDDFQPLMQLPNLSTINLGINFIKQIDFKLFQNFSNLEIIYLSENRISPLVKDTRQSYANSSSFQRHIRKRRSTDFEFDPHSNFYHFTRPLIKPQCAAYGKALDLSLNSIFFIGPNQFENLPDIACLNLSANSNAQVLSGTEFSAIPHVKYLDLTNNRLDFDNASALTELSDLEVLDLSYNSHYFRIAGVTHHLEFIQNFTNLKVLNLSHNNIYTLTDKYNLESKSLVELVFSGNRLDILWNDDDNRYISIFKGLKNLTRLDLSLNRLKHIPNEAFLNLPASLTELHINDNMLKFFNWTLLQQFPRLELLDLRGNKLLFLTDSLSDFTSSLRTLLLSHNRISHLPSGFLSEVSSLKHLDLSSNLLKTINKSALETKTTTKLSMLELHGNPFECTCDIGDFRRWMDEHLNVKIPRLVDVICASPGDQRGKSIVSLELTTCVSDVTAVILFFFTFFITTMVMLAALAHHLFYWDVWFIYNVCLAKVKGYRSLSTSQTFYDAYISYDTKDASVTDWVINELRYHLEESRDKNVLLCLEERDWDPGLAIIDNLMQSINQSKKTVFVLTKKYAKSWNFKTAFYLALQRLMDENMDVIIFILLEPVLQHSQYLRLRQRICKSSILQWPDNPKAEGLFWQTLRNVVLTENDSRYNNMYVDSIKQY
MEASUREMENT PROTOCOL: HEK/293 TLR8 Cell Assay
TEST SETTINGS: HEK cells, R848 agonist 30 uM final concentration, Steady-Glo readout; read-out: TLR8 potency
pIC50: −log10 of the molar value.
READOUT TYPE: pIC50

> print(dat)
                                    molecule                target.or.test.system  endpoint.result
 1  C[C@H]1C[C@@H](NC(=O)[C@@H](N)CC(N)=O)CN(c2ccc(C(F)(F)F)c3ncccc23)C1 [Example 128]  TLR8 (Homo sapiens, UniProt Q9NR97)           > 7.12
 2  C[C@H]1C[C@@H](n2ccnc2)CN(c2ccc(C(F)(F)F)c3nccnc23)C1 [Example 157]  TLR8 (Homo sapiens, UniProt Q9NR97)           > 7.12
 3  C[C@@H]1CN(c2ccc(C#N)c3nccnc23)C[C@H](C(=O)NCCCS(C)(=O)=O)O1 [Example 260]  TLR8 (Homo sapiens, UniProt Q9NR97)           < 6.82
 4  C[C@H]1C[C@@H](NC(=O)C[C@@H](O)CN(C)C)CN(c2ccc(C#N)c3nccnc23)C1 [Example 211]  TLR8 (Homo sapiens, UniProt Q9NR97)           > 7.12
 5  C[C@H]1C[C@@H](n2cccn2)CN(c2ccc(C(F)(F)F)c3nccnc23)C1 (racemic) [Example 155]  TLR8 (Homo sapiens, UniProt Q9NR97)           < 6.82
 6  C[C@@H]1CN(c2cnc(C#N)c3ncccc23)C[C@H](C(=O)NCC2(F)CCNCC2)O1 [Example 300]  TLR8 (Homo sapiens, UniProt Q9NR97)     6.82 to 7.12
 7  CONC(=O)CCN[C@@H]1C[C@H](C)CN(c2ccc(C(F)(F)F)c3ncccc23)C1 [Example 55]  TLR8 (Homo sapiens, UniProt Q9NR97)           > 7.12
 8  C[C@H]1C[C@@H](NC(=O)[C@H]2CCCN2)CN(c2ccc(C(F)(F)F)c3ncccc23)C1 [Example 177]  TLR8 (Homo sapiens, UniProt Q9NR97)           > 7.12
 9  N#Cc1ccc(N2C[C@@H](C(=O)N3C[C@@H](N)C4(CC4)C3)O[C@@H](C(F)(F)F)C2)c2nccnc12 (single isomer, unassigned) [Example 312]  TLR8 (Homo sapiens, UniProt Q9NR97)           < 6.82
10  Cc1ccc(N2C[C@H](NC(=O)CC3CCN(C(C)C)CC3)C[C@H](C(F)(F)F)C2)c2cccnc12 [Example 109]  TLR8 (Homo sapiens, UniProt Q9NR97)     6.82 to 7.12
11  N#Cc1ccc(N2C[C@H](N)CC(F)(F)C2)c2cccnc12 (single isomer, unassigned) [Example 198]  TLR8 (Homo sapiens, UniProt Q9NR97)           < 6.82
12  C[C@H]1C[C@@H](NC(=O)[C@@H](C)N2CCC(O)CC2)CN(c2ccc(C(F)(F)F)c3ncccc23)C1 (single isomer, unassigned) [Example 105]  TLR8 (Homo sapiens, UniProt Q9NR97)           > 7.12
13  C[C@H]1C[C@@H](NC2CS(=O)(=O)C2)CN(c2ccc(C(F)(F)F)c3ncccc23)C1 [Example 13]  TLR8 (Homo sapiens, UniProt Q9NR97)           > 7.12
14  CC(C(=O)N[C@@H]1C[C@H](C)CN(c2ccc(C#N)c3nccnc23)C1)N1CCC(O)CC1 (single isomer, unassigned) [Example 102]  TLR8 (Homo sapiens, UniProt Q9NR97)           > 7.12
15  C[C@@H]1CN(c2ccc(C#N)c3nccnc23)C[C@H](C(=O)NC2CN(CC(F)(F)F)C2)O1 [Example 254]  TLR8 (Homo sapiens, UniProt Q9NR97)           < 6.82
